As an illustration, consider measured IC50 for compounds on UniProtKB A3EZJ3.
Sequence (A3EZJ3 whole entry): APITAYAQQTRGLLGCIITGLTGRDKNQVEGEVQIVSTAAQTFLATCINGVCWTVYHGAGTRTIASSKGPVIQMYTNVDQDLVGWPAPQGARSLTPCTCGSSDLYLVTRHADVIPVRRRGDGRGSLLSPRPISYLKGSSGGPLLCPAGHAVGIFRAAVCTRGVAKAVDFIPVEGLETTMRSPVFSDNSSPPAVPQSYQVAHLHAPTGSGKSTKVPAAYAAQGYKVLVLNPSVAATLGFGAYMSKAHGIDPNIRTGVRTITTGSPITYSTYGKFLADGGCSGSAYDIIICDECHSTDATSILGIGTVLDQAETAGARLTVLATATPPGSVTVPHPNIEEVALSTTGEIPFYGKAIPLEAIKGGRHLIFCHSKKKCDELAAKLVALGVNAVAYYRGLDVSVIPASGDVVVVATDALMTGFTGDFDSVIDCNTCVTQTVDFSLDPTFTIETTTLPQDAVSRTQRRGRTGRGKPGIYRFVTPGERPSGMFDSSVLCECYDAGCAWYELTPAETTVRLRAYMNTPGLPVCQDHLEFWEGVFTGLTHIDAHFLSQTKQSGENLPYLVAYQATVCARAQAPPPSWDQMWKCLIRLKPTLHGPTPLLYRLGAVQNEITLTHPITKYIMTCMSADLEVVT
Answers are plain numbers, in µM.

* O=C1C=C2C(=CCOC2O)O1 (stereo not drawn) | 24.7

List the reported IC50 of each compound below.
1. CC(=O)OC1OCC=C2OC(=O)C=C21 (stereo not drawn)
2. O=C1C=C2C(=CCOC2OC(=O)c2ccc(Br)cc2)O1 (stereo not drawn)

-- reply
1. 36.7
2. 37.4
